target: human CB1 receptor (Homo sapiens); construct: expressed in transfected cells; host or cells: SK-N-MC cells, stably transfected with pcDNA3 CB-1 (human); semi-purified membrane pellet; assay: Binding assay for CB1 agonists or inverse agonists ([3H]-CP-55,940 displacement, SK-N-MC membranes); settings: test concentration 0.25 μM (footnote 3); read-out: CB1 receptor binding percent inhibition
attribute-measured: inhibition at 0.25 µM (%)

1) O=S(=O)(/C=C/c1nn(-c2ccc(F)cc2F)c2c1CCC2Cc1cccc(F)c1)NN1CCOCC1 (centres unmarked) = 0
2) C[C@@H](NS(=O)(=O)/C=C/c1nn(-c2ccc(Cl)cc2Cl)c2c1CCC2Cc1cccc(Cl)c1)C1CCCCC1 (some centres unmarked) = 44
3) C[C@H](NS(=O)(=O)/C=C/c1nn(-c2ccc(Cl)cc2Cl)c2c1CCC2Cc1cccc(Cl)c1)c1ccccc1 (some centres unmarked) = 27
4) O=S(=O)(/C=C/c1nn(-c2ccc(F)cc2F)c2c1CCC2Cc1cccc(F)c1)NN1CCCCC1 (centres unmarked) = 22
5) C[C@@H](NS(=O)(=O)/C=C/c1nn(-c2ccc(F)cc2F)c2c1CCC2Cc1cccc(F)c1)C1CCCCC1 (some centres unmarked) = 44
6) COC(=O)[C@@H](Cc1ccc(O)cc1)NC(=O)c1nn(-c2ccc(F)cc2F)c2c1CCC2Cc1cccc(F)c1 (some centres unmarked) = 54
7) CCOC(=O)[C@H]1C2CCC(C2)[C@H]1NC(=O)c1nn(-c2ccc(F)cc2F)c2c1CCC2Cc1cccc(F)c1 (some centres unmarked) = 58
8) O=C(NN1CCOCC1)c1nn(-c2ccc(F)cc2F)c2c1CCC2Cc1cccc(F)c1 (centres unmarked) = 14
9) COC(=O)[C@@H](Cc1ccc(F)cc1)NC(=O)c1nn(-c2ccc(F)cc2F)c2c1CCC2Cc1cccc(F)c1 (some centres unmarked) = 50
10) C[C@H](NC(=O)c1nn(-c2ccc(F)cc2F)c2c1CCC2Cc1cccc(F)c1)c1ccccc1 (some centres unmarked) = 66
11) C[C@@H](NC(=O)c1nn(-c2ccc(F)cc2F)c2c1CCC2Cc1cccc(F)c1)c1ccccc1 (some centres unmarked) = 52
12) O=C(c1nn(-c2ccc(F)cc2F)c2c1CCC2Cc1cccc(F)c1)N1CCCCC1 (centres unmarked) = 6
13) O=C(c1nn(-c2ccc(F)cc2F)c2c1CCC2Cc1cccc(F)c1)N1CCOCC1 (centres unmarked) = 0
14) O=C(NN1CCCCC1)c1nn(-c2ccc(F)cc2F)c2c1CCC2Cc1cccc(F)c1 (centres unmarked) = 4

----------
biological target: human CB2 receptor (Homo sapiens, UniProt P34972); construct: expressed in transfected cells; host or cells: SK-N-MC cells, stably transfected with pcDNA3 CB-2 (human); semi-purified membrane pellet; test: Binding assay for CB2 agonists or inverse agonists ([3H]-CP-55,940 displacement, SK-N-MC membranes); settings: test concentration 0.25 μM (footnote 3); read-out: CB2 receptor binding percent inhibition
Sequence (P34972 whole entry): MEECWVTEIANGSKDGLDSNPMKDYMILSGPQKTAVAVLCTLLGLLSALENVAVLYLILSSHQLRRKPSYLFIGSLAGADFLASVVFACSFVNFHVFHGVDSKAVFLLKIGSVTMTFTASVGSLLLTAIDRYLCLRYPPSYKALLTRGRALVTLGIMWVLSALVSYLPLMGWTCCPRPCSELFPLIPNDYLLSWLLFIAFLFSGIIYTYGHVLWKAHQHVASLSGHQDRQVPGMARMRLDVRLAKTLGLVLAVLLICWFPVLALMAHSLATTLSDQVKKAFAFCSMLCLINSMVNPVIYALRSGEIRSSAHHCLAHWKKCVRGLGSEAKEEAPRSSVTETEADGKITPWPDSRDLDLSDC
Recorded measurements of inhibition at 0.25 µM, one per entry
attribute-measured: inhibition at 0.25 µM (%)

1) CCOC(=O)[C@H]1C2CCC(C2)[C@H]1NC(=O)c1nn(-c2ccc(F)cc2F)c2c1CCC2Cc1cccc(F)c1 (some centres unmarked) = 44
2) O=C(NN1CCCCC1)c1nn(-c2ccc(F)cc2F)c2c1CCC2Cc1cccc(F)c1 (centres unmarked) = 12
3) O=C(c1nn(-c2ccc(F)cc2F)c2c1CCC2Cc1cccc(F)c1)N1CCOCC1 (centres unmarked) = 0
4) COC(=O)[C@@H](Cc1ccc(F)cc1)NC(=O)c1nn(-c2ccc(F)cc2F)c2c1CCC2Cc1cccc(F)c1 (some centres unmarked) = 30
5) O=C(c1nn(-c2ccc(F)cc2F)c2c1CCC2Cc1cccc(F)c1)N1CCCCC1 (centres unmarked) = 0
6) O=C(NN1CCOCC1)c1nn(-c2ccc(F)cc2F)c2c1CCC2Cc1cccc(F)c1 (centres unmarked) = 0
7) C[C@@H](NS(=O)(=O)/C=C/c1nn(-c2ccc(Cl)cc2Cl)c2c1CCC2Cc1cccc(Cl)c1)C1CCCCC1 (some centres unmarked) = 18
8) O=S(=O)(/C=C/c1nn(-c2ccc(F)cc2F)c2c1CCC2Cc1cccc(F)c1)NN1CCOCC1 (centres unmarked) = 21
9) COC(=O)[C@@H](Cc1ccc(O)cc1)NC(=O)c1nn(-c2ccc(F)cc2F)c2c1CCC2Cc1cccc(F)c1 (some centres unmarked) = 50
10) C[C@@H](NS(=O)(=O)/C=C/c1nn(-c2ccc(F)cc2F)c2c1CCC2Cc1cccc(F)c1)C1CCCCC1 (some centres unmarked) = 4
11) O=C(NCc1ccccc1)c1nn(-c2ccc(F)cc2F)c2c1CCC2Cc1cccc(F)c1 (centres unmarked) = 0
12) C[C@@H](NC(=O)c1nn(-c2ccc(F)cc2F)c2c1CCC2Cc1cccc(F)c1)c1ccccc1 (some centres unmarked) = 26
13) C[C@H](NC(=O)c1nn(-c2ccc(F)cc2F)c2c1CCC2Cc1cccc(F)c1)c1ccccc1 (some centres unmarked) = 19
14) O=S(=O)(/C=C/c1nn(-c2ccc(F)cc2F)c2c1CCC2Cc1cccc(F)c1)NN1CCCCC1 (centres unmarked) = 0

----------
target: human CB1 receptor (Homo sapiens, UniProt P21554); construct: expressed in transfected cells; host or cells: SK-N-MC cells, stably transfected with pcDNA3 CB-1 (human); semi-purified membrane pellet; assay: Binding assay for CB1 agonists or inverse agonists ([3H]-CP-55,940 displacement, SK-N-MC membranes); conditions: read-out: CB1 receptor binding percent inhibition
Sequence (P21554 whole entry): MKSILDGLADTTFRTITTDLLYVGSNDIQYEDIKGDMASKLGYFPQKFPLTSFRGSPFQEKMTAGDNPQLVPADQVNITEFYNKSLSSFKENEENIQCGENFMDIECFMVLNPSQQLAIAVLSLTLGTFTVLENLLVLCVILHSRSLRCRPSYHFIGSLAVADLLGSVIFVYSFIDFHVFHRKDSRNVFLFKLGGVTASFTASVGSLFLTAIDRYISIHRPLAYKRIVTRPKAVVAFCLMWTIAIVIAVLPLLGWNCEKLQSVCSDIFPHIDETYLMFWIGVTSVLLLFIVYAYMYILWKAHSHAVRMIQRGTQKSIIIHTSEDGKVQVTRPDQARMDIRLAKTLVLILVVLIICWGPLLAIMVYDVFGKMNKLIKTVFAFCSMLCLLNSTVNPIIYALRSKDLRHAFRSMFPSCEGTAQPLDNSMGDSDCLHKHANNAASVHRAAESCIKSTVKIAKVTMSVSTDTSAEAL
Form field: inhibition at 0.25 µM (one value per entry).
attribute-measured: inhibition at 0.25 µM (%)

1) O=C(N[C@@H]1c2ccccc2C[C@@H]1O)c1nn(-c2ccc(F)cc2F)c2c1CCC2Cc1cccc(F)c1 (stereo partly shown) = 63
2) C[C@H](NC(=O)c1nn(-c2ccc(F)cc2F)c2c1CCC2Cc1cccc(F)c1)C1CCCCC1 (stereo partly shown) = 70
3) C[C@H](NS(=O)(=O)/C=C/c1nn(-c2ccc(F)cc2F)c2c1CCC2Cc1cccc(F)c1)c1ccccc1 (stereo partly shown) = 5
4) C[C@@H](NC(=O)c1nn(-c2ccc(F)cc2F)c2c1CCC2Cc1cccc(F)c1)C1CCCCC1 (stereo partly shown) = 67
5) C[C@@H](NS(=O)(=O)/C=C/c1nn(-c2ccc(F)cc2F)c2c1CCC2Cc1cccc(F)c1)c1ccccc1 (stereo partly shown) = 24
6) CC12CCC(C1)C(C)(C)[C@H]2NC(=O)c1nn(-c2ccc(F)cc2F)c2c1CCC2Cc1cccc(F)c1 (stereo partly shown) = 60
7) O=C(NCc1ccccc1)c1nn(-c2ccc(F)cc2F)c2c1CCC2Cc1cccc(F)c1 (stereo not shown) = 26

----------
biological target: human CB2 receptor (Homo sapiens, UniProt P34972); construct: expressed in transfected cells; host or cells: SK-N-MC cells, stably transfected with pcDNA3 CB-2 (human); semi-purified membrane pellet; test: Binding assay for CB2 agonists or inverse agonists ([3H]-CP-55,940 displacement, SK-N-MC membranes); conditions: test concentration 0.2 μM (footnote 2); read-out: CB2 receptor binding percent inhibition
attribute-measured: inhibition at 0.2 µM (%)

1. O=C(N[C@@H](CO)Cc1ccccc1)c1nn(-c2ccc(F)cc2F)c2c1CCC2Cc1cccc(F)c1 (stereo partly shown) = 31
2. O=C(N[C@H](CO)c1ccccc1)c1nn(-c2ccc(F)cc2F)c2c1CCC2Cc1cccc(F)c1 (stereo partly shown) = 0
3. O=C(N[C@@H](CCl)c1ccccc1)c1nn(-c2ccc(F)cc2F)c2c1CCC2Cc1cccc(F)c1 (stereo partly shown) = 32
4. O=C(N[C@H](CCl)Cc1ccccc1)c1nn(-c2ccc(F)cc2F)c2c1CCC2Cc1cccc(F)c1 (stereo partly shown) = 22

----------
target: human CB1 receptor (Homo sapiens); construct: expressed in transfected cells; host or cells: SK-N-MC cells, stably transfected with pcDNA3 CB-1 (human); semi-purified membrane pellet; assay: Functional cell-based assay, CB1 receptor mediated change in CRE β-gal expression (adenylate cyclase activity); conditions: one compound concentration; vehicle treated cell = 100%
Property: CB1 Receptor Functional Activity (change in functional activity); scope: individual compounds
attribute-measured: CB1 Receptor Functional Activity (change in functional activity) (%)

1) C[C@@H](NS(=O)(=O)/C=C/c1nn(-c2ccc(F)cc2F)c2c1CCC2Cc1cccc(F)c1)c1ccccc1 (stereo partly shown) = 34
2) O=S(=O)(/C=C/c1nn(-c2ccc(F)cc2F)c2c1CCC2Cc1cccc(F)c1)NN1CCOCC1 (stereo not shown) = 58
3) C[C@H](NC(=O)c1nn(-c2ccc(F)cc2F)c2c1CCC2Cc1cccc(F)c1)C1CCCCC1 (stereo partly shown) = 37
4) O=C(c1nn(-c2ccc(F)cc2F)c2c1CCC2Cc1cccc(F)c1)N1CCCCC1 (stereo not shown) = 21
5) COC(=O)[C@@H](Cc1ccc(F)cc1)NC(=O)c1nn(-c2ccc(F)cc2F)c2c1CCC2Cc1cccc(F)c1 (stereo partly shown) = 48
6) CCOC(=O)[C@H]1C2CCC(C2)[C@H]1NC(=O)c1nn(-c2ccc(F)cc2F)c2c1CCC2Cc1cccc(F)c1 (stereo partly shown) = 24
7) COC(=O)[C@@H](Cc1ccc(O)cc1)NC(=O)c1nn(-c2ccc(F)cc2F)c2c1CCC2Cc1cccc(F)c1 (stereo partly shown) = −15

Ref: patent US8119621B2
